Biological target: HLA-DRB1*1101 (human)
Assay: competition binding
Conditions: modification not given
assayMetric: IC50 (nM)

binder	unitName	observedMeasurement
GTFQKWAAVVVPSGQ [p45*]	nM	340
SQRMEPRAPWIEQEGP [p9]	nM	15500
EQLRAYLEGTCVEWL [p32]	nM	424
LSFYPAEITLTWQRD [p41]	nM	2340

(a) HQYAYDGKDYIALKE [p23]
(b) AHVAEQLRAYLEGTC [p31]
Record comparison, field IC50: mark the lower of a and b . Mark your answer with the label of the selected entry.
a
